- assay_protocol: Tmax in Sprague-Dawley rat at 25 mg/kg, po measured upto 24 hrs by LC-MS/MS analysis
- Format: ADME, organism-based
- stated_conditions: in vivo
value_kind: Tmax (min)
# value in min; strip the unit string

Ask | Quick one: Tmax of O=C(NCCN1CCOCC1)c1ccc(-c2cnc3[nH]ccc3c2)cc1 ?
Reply | 15

----------
- test_system: Programmed cell death 1 ligand 1 (Homo sapiens)
- Sequence (Q9NZQ7 whole entry): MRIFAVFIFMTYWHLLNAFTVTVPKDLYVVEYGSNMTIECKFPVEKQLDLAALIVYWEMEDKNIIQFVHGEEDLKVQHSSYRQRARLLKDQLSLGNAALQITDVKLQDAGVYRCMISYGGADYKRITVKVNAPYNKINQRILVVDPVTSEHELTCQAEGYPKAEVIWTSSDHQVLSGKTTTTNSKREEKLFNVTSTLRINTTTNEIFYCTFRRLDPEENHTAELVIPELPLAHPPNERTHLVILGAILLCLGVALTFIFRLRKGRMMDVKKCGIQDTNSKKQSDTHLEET
- assay_protocol: Inhibition of exosomal PD-L1 (unknown origin) generation preincubated with compound for 24 hrs followed by strep-d2 acceptor bead addition and measured after 30 mins by HTRF assay
value_kind: pIC50
Here pIC50 is given on a logarithmic scale as minus log10 of the concentration in mol/L.

These solved cases illustrate the format of a correct answer.
O=C(NCCN1CCOCC1)c1ccc(-c2cncnc2)cc1: 6.24
CC(C)(C)OC(=O)Nc1ccc(-c2ccc(C(=O)NCCN3CCOCC3)cc2)cc1: 6.17
Nc1ccc(-c2ccc(C(=O)NCCN3CCOCC3)cc2)cc1: 6.47
Cn1nccc1-c1ccc(C(=O)NCCN2CCOCC2)cc1: 6.54
O=C(NCCN1CCOCC1)c1ccc(-c2ccc(F)cc2)cc1: 5.65
COc1ncc(-c2ccc(C(=O)NCCN3CCOCC3)cc2)cn1: 6.34
O=C(NCCN1CCOCC1)c1ccc(-c2ccccc2)cc1: 5.81
CCOC(C)n1cc(-c2ccc(C(=O)NCCN3CCOCC3)cc2)cn1 (centres undefined): 6.12

Would you kindly look at the next entry?
Ask | Quick one: pIC50 of COc1ccc(-c2ccc(C(=O)NCCN3CCOCC3)cc2)cn1 ?
Reply | 6.17
